# Assayed Target: Type-2 angiotensin II receptor (Homo sapiens)
# Sequence (P50052 whole entry): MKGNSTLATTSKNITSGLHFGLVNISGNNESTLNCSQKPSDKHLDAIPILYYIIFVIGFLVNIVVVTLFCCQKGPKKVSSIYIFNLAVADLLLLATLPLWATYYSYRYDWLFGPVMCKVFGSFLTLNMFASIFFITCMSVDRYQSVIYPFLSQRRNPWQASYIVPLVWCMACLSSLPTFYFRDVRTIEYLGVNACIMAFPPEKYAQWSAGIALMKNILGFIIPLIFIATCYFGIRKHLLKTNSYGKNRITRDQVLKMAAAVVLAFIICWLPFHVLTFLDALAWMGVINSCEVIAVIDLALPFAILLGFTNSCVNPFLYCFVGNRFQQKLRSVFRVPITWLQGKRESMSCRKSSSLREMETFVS
Reported Metric: Ki (nM)

(P) CCCCc1nc2ccc(NC(=O)NC3CCCCC3)cc2n1Cc1ccc(-c2ccccc2C(=O)O)cc1
(Q) CCCCCN(C(=O)NC)c1ccc2nc(CCCC)n(Cc3ccc(NC(=O)c4c(Cl)ccc(Cl)c4C(=O)O)cc3)c2c1
q: Parameter metric = Ki. Return the lower-valued option from P and Q . Which one? Tell me its label.
a: P

* * *

# Organism: Oryctolagus cuniculus
# Measurement Notes: Compound was tested for its antagonistic activity against angiotensin II-induced contractions in rabbit aorta
# Type: functional, organism-based
Reported Metric: pIC50
Just so you know, pIC50 here is -log10 of the concentration in molar units; reply with that number alone.

For this compound ( CCCCC1=NC2(CCCC2)C(=O)N1Cc1ccc(-c2ccccc2-c2nnn[nH]2)cc1 [IRBESARTAN] ), measured pIC50 is 8.40

* * *

# Assayed Target: Type-1 angiotensin II receptor (Oryctolagus cuniculus, UniProt P34976)
# Sequence (P34976 whole entry): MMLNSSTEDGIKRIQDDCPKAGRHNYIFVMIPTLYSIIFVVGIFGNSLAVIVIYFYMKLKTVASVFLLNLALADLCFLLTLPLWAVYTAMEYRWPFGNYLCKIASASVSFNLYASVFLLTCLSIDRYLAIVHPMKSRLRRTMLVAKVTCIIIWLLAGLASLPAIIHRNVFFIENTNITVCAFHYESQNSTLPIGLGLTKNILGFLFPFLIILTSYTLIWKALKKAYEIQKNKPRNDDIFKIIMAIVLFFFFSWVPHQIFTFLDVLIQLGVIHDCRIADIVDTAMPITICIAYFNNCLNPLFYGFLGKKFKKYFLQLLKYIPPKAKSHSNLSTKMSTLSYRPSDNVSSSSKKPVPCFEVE
# Measurement Notes: Inhibition of Angiotensin II receptor, type 1
Reported Metric: IC50 (nM)

(I) CCCc1nc(CC)c(C=O)n1Cc1ccc(-c2ccccc2S(=O)(=O)NC(=O)c2ccccc2)cc1
(II) CCc1nc2c(C)cc(C)nc2n1Cc1ccc2c(ccn2C(=O)c2cccc(-c3nn[nH]n3)c2)c1
(III) CCCc1ccc(-c2nnn[nH]2)c(-c2ccc(Cn3c(CC)nc4c(C)cc(C)nc43)cc2)c1
q: Ranking criterion: IC50, increasing numeric value. Items: as listed above. Sort and list the labels as requested.
a: III, I, II
(III: 0.3 nM, I: 1.9 nM, II: 5 nM)

* * *

# Assayed Target: Angiotensin II receptor (AT-1) type-1 (Rattus norvegicus, UniProt P29089+P25095)
# Measurement Notes: Inhibitory activity against Angiotensin II receptor, type 1
# Type: protein assay
# Assay Context: read-out: IC50
Reported Metric: IC50 (nM)

Take a look at these entries with their results.
CCCc1nc2c(C)c(NC(=O)c3ccccc3)cnc2n1Cc1ccc(-c2ccccc2S(=O)(=O)NC(=O)OCCC(C)C)cc1 = 0.24
CCCC(=O)N(CCC(=O)c1c(CC)nc(CCC)n1Cc1ccc(-c2ccccc2S(=O)(=O)NC(=O)OCCC(C)C)cc1F)c1cccnc1 = 0.26

(A) CCCCc1nc2ccc(C(C)(C)OC)cc2c(=O)n1Cc1ccc(-c2ccccc2-c2nn[nH]n2)cc1 [CL-329167]
(B) CCCc1nc(C(F)(F)C(F)(F)F)c(C(=O)O)n1Cc1ccc(-c2ccccc2-c2nn[nH]n2)cc1Br
q: For the two items A and B , which reports the higher IC50 value? Mark your selection by writing its label.
a: A
(A: 6 nM, B: 3 nM)

* * *

# Assayed Target: Type-1 angiotensin II receptor (Homo sapiens)
# Sequence (P30556 whole entry): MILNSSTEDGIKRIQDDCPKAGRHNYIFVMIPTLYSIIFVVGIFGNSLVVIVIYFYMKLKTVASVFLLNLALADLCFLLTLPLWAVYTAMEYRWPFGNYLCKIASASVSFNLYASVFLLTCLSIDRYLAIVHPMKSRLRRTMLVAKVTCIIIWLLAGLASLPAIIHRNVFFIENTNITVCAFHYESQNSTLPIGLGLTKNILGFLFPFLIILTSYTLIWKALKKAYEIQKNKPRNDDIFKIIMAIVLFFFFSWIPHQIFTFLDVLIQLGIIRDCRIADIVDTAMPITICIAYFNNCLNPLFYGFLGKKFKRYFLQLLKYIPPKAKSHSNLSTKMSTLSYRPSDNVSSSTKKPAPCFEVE
pIC50: −log10 of the molar value.
Reported Metric: pIC50

Record excerpt, results attached:
CCCNC(=O)NS(=O)(=O)c1ccccc1-c1ccc(Cn2c(CCC)nc(SC)c2C(=O)O)cc1 = 9.52
CCCCOC(=O)NS(=O)(=O)c1sc(CC(C)C)cc1-c1ccc(Cn2c(CC)nc3c(C)cc(C)nc32)cc1 = 8.96
CCCCCN(Cc1ccc(-c2ccccc2-c2nn[nH]n2)cc1)C(=O)N1CCN(C(=O)N(c2ccccc2)c2ccccc2)[C@H](C(=O)O)C1 = 7.82

(I) CCCCOC(=O)NS(=O)(=O)c1ccc(Cc2cccc(OC)c2)cc1-c1ccc(Cn2c(CC)nc3c(C)cc(C)nc32)cc1
(II) CCc1nc2c(C)cc(C)nc2n1Cc1ccc(-c2ccccc2S(=O)(=O)NC(=O)C(c2ccccc2)c2ccccc2)cc1
q: Of I and II , which shows the smaller pIC50 value? Bench note: the answer is the label of the chosen record.
a: I

* * *

# Assayed Target: Type-2 angiotensin II receptor (Homo sapiens)
# Measurement Notes: Inhibition of Angiotensin II receptor, type 2
Reported Metric: IC50 (nM)

CCCc1nc(CC)c(C(=O)OCc2ccccc2C(=O)c2ccccc2)n1Cc1ccc(-c2ccccc2S(=O)(=O)NC(=O)OCCC(C)C)cc1F = 0.69

(P) CCCCOC(=O)NS(=O)(=O)c1ccc(CCC)cc1-c1ccc(Cn2c(CC)nc3c(C)cc(C)nc32)cc1
(Q) CCCCCN(Cc1ccc(-c2ccccc2-c2nn[nH]n2)cc1)C(=O)N1CCN(C(=O)N(c2ccccc2)c2ccccc2)[C@H](C(=O)O)C1
q: Please tell me which of the two, P or Q , has the higher reported IC50 value. Indicate which entry you chose by stating its label.
a: Q

* * *

# Measurement Notes: Oral bioavailability in dog
# Format: ADME, organism-based, Canis lupus familiaris
# Assay Context: in vivo
Reported Metric: bioavailability (%)

CCc1nc2ccc(NC(=O)N(C)C(C)C)cc2c(=O)n1Cc1ccc(-c2ccccc2S(=O)(=O)NC(=O)OCCC2CC2)cc1F = 17

(A) CCCc1nc(CC)c(C(=O)O)n1Cc1ccc(-c2ccccc2-c2nn[nH]n2)cc1
(B) CCCc1nc2c(C)c(NC(=O)c3ccccc3)cnc2n1Cc1ccc(-c2ccccc2S(=O)(=O)NC(=O)OCCC(C)C)cc1
q: Which record shows the lower bioavailability: the first, A , or the second, B ? To answer, give the label that identifies your chosen option.
a: A

* * *

# Assayed Target: UniProt:P34976
Reported Metric: pKi
Scale: pKi equals -log10([C]), with [C] in mol/L.

Entry CCCCc1nc(C)n(Cc2sccc2C(=O)OC)c(=O)c1Cc1ccc(-c2ccccc2-c2nnn[nH]2)cc1 ; assay system UniProt:P34976; pKi recorded at 9.05

* * *

# Measurement Notes: Inhibitory activity was evaluated against Angiotensin II receptor, type 2
Reported Metric: IC50 (µM)
# number only, unit µM dropped from output

Per the record, CCCCc1nc(SC)c(C(=O)O)n1Cc1ccc(-c2ccccc2S(=O)(=O)NC(=O)NCCC)cc1 has IC50 of 0.92

* * *

# Measurement Notes: Oral bioavailability was evaluated in rhesus monkey
# Assay type: ADME, organism-based, Macaca mulatta
# Assay Context: in vivo
Reported Metric: bioavailability (%)
Just the number please, in %, no unit attached.

Per the records, this compound ( CCc1nc2c(C)cc(C)nc2n1Cc1ccc(-c2ccccc2-c2nn[nH]n2)cc1 ) has bioavailability equal to 32

* * *

# Measurement Notes: Oral Bioavailability was evaluated in dog by oral administration
# Format: ADME, organism-based, Canis lupus familiaris
# Assay Context: in vivo
Reported Metric: bioavailability

Reported bioavailability for CCCN(Cc1ccc(-c2ccccc2-c2nn[nH]n2)cc1)c1ncccc1C(=O)O was > 50%

* * *

# Measurement Notes: Oral bioavailability in rat
# Format: ADME, organism-based
# Assay Context: in vivo
Reported Metric: bioavailability (%)

CCCc1nc2c(C)c(NC(=O)c3ccccc3)cnc2n1Cc1ccc(-c2ccccc2S(=O)(=O)NC(=O)OCCC(C)C)cc1 = 45
CCc1nc2ccc(NC(=O)N(C)C(C)C)cc2c(=O)n1Cc1ccc(-c2ccccc2S(=O)(=O)NC(=O)OCCC2CC2)cc1F = 23
CCCc1nc(CC)c(C(=O)O)n1Cc1ccc(-c2ccccc2-c2nn[nH]n2)cc1 = 8
CCc1nc2c(C)cc(C)nc2n1Cc1ccc(-c2ccccc2-c2nn[nH]n2)cc1 = 100

(A) CCCCc1nc(Cl)c(C(=O)O)n1Cc1ccc(-c2ccccc2-c2nn[nH]n2)cc1 [CARBOXYLIC ACID METABOLITE]
(B) CCCCc1nc(Cl)c(C(=O)O)n1Cc1ccc2oc(-c3ccccc3-c3nnn[nH]3)c(Br)c2c1
q: A or B : whose bioavailability is greater? Mark your selection by writing its label.
a: A

Data provenance is ChEMBL document CHEMBL1129469.
